# Tested on: E. coli ATCC 25922
# method: MIC assay (CLSI broth microdilution), AECO001
# Type: cell-based
# conditionDescription: Escherichia coli; AECO001 is ATCC25922 (E. coli); Mueller Hinton Broth, 35 C, 20 hours
readoutType: MIC

IN: I'd like to know its MIC. The molecule in question is NC[C@@H]1CC[C@@H](N)[C@@H](O[C@H]2[C@H](O[C@@H]3O[C@H](CO)[C@@H](O[C@H]4O[C@@H](CN)CC[C@H]4N)[C@H]3O)[C@@H](O)[C@H](NC(=O)[C@@H](O)[C@@H](O)CN)C[C@@H]2N)O1 [Example 28/Compound 6]
OUT: ≤ 1 µg/mL

Would you be so kind as to report MIC for each listed record?
1. NCCS(=O)(=O)N[C@@H]1C[C@H](N)[C@@H](O[C@H]2O[C@H](CN)CC[C@H]2N)[C@H](O[C@@H]2O[C@H](CO)[C@@H](O[C@H]3O[C@@H](CN)CC[C@H]3N)[C@H]2O)[C@H]1O [Example 23/Compound 4]
2. NC[C@@H]1CC[C@@H](N)[C@@H](O[C@H]2[C@H](O[C@@H]3O[C@H](CO)[C@@H](O[C@H]4O[C@@H](CN)CC[C@H]4N)[C@H]3O)[C@@H](O)[C@H](N)C[C@@H]2N)O1 [Example 3/Compound 6, 3′,4′,3′″,4′″-tetra-deoxy-neomycin]
3. NC[C@@H]1CC[C@@H](N)[C@@H](O[C@H]2[C@H](O[C@@H]3O[C@H](CO)[C@@H](O[C@H]4O[C@@H](CN)CC[C@H]4N)[C@H]3O)[C@@H](O)[C@H](NC(=O)[C@@H](O)C(F)(F)CN)C[C@@H]2N)O1 [Example 26/Compound 6]

OUT:
["1 to 16 µg/mL", "≤ 1 µg/mL", "≤ 1 µg/mL"]
